Tested on: Streptococcus pasteurianus
Test: Antibacterial activity against high-level gentamicin resistant Streptococcus pasteurianus SB41 isolate carrying transposon-borne resistance gene [aac(6')Ie-aph(2'')Ia] by agar dilution method
Format: functional
readout-type: MIC (µg/mL)
Give bare numbers, in µg/mL.

Previously resolved entries follow.
CN(C)[C@@H]1C(O)=C(C(N)=O)C(=O)[C@@]2(O)C(O)=C3C(=O)c4c(O)cccc4[C@@](C)(O)[C@H]3C[C@@H]12 [TETRACYCLINE]    256
CCN[C@@H]1C[C@H](N)[C@@H](O[C@H]2OC(CN)=CC[C@H]2N)[C@H](O)[C@H]1O[C@H]1OC[C@](C)(O)[C@H](NC)[C@H]1O [NETILMICIN]    8
CCC[C@@H]1C[C@@H](C(=O)N[C@@H]([C@H]2O[C@H](SC)[C@H](O)[C@@H](O)[C@H]2O)[C@H](C)Cl)N(C)C1 [CLINDAMYCIN]    512

Let's switch to this molecule now.
Problem: Give MIC for the following molecule: CN[C@@H]1[C@H](O[C@H]2[C@H](O[C@H]3[C@H](O)[C@@H](O)[C@H](N=C(N)N)[C@@H](O)[C@@H]3N=C(N)N)O[C@@H](C)[C@]2(O)C=O)O[C@@H](CO)[C@H](O)[C@H]1O [STREPTOMYCIN]
Solution: 32
